Where do these numbers come from? They come from the NIST ThermoML archive (doi:10.1021/je700670k).

Form field: mass density (one value per entry).
- testContext: 313.15 K; 2000 kPa; Liquid; Vibrating tube method
property: mass density (kg/m3)

• CCC[n+]1cccc(C)c1.O=S(=O)([N-]S(=O)(=O)C(F)(F)F)C(F)(F)F = 1435.6
• CCCC[N+]1(C)CCCC1.O=S(=O)([N-]S(=O)(=O)C(F)(F)F)C(F)(F)F = 1390.9
• CCn1cc[n+](C)c1.O=S(=O)([O-])C(F)(F)F [1-ethyl-3-methylimidazolium trifluoromethanesulfonate] = 1362.2
• CCC[N+]1(C)CCCCC1.O=S(=O)([N-]S(=O)(=O)C(F)(F)F)C(F)(F)F = 1398.9
• CCC[N+]1(C)CCCC1.O=S(=O)([N-]S(=O)(=O)C(F)(F)F)C(F)(F)F = 1420.1
